# System: SW480
# Assay overview: TCF/Wnt firefly luciferase reporter signal relative to plate median (fraction of plate median); higher = higher Wnt reporter signal
# Applied conditions: 10 µM; treatment time 24 h; reporter: 7TFP
In this section, each of the compounds is paired with its reported TCF/Wnt firefly luciferase reporter signal.
A bare number is all that is needed in reply.

What measured TCF/Wnt firefly luciferase reporter signal goes with COc1cc(Nc2c(C#N)cnc3cc(OCCCN4CCN(C)CC4)c(OC)cc23)c(Cl)cc1Cl [Bosutinib (SKI-606)] ?
0.648

Which value of TCF/Wnt firefly luciferase reporter signal has been reported for CC(C)CC(=O)Nc1n[nH]c2c1CN(C(=O)C1CCN(C)CC1)C2(C)C in the records?
0.836

Report TCF/Wnt firefly luciferase reporter signal for CNC(=O)c1ccccc1Sc1ccc2c(/C=C/c3ccccn3)n[nH]c2c1 please.
1.36

Reported TCF/Wnt firefly luciferase reporter signal, compound O=C(NOCC1CC1)c1ccc(F)c(F)c1Nc1ccc(I)cc1Cl : ____
1.16

Entry CCc1cnn2c(NCc3ccc[n+]([O-])c3)cc(N3CCCC[C@H]3CCO)nc12 : reported TCF/Wnt firefly luciferase reporter signal = ?
0.61

Measured values drawn from the supplement of paper PMC6522484 for this set.
